- Test system: Zymoseptoria tritici (SEPTTR-184)
- ASSAY COMMENT: Cyp51 dsRNA tile (fragment) foliar application bioassay (Example 6)
- Type: in vivo
- CONDITIONS: 3 days curative; rate 12.5 ppm; average of 2 trials
PROPERTY NAME: Disease Control (%) SEPTTR-184 3DC
Kindly answer with a numeric value in %, unit omitted.

Give recorded Disease Control (%) SEPTTR-184 3DC. MgCyp51-T9: dsRNA tile of Zymoseptoria tritici Cyp51, 172 bp, location 1-172 (nucleic acid, listed as Zymoseptoria tritici, double-stranded RNA) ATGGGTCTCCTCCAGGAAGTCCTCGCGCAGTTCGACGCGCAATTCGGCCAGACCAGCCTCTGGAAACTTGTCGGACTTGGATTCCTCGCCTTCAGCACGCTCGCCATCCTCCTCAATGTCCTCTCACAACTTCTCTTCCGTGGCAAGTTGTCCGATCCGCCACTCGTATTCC
46
